Biological target: IRAK4 (Homo sapiens)
Construct: Degradation of IRAK4 in OCI-LY10 was quantitatively measured using Meso Scale Discovery technology; endogenous in cells; host or cells: OCI-LY10
Sequence (Q9NWZ3 1-460): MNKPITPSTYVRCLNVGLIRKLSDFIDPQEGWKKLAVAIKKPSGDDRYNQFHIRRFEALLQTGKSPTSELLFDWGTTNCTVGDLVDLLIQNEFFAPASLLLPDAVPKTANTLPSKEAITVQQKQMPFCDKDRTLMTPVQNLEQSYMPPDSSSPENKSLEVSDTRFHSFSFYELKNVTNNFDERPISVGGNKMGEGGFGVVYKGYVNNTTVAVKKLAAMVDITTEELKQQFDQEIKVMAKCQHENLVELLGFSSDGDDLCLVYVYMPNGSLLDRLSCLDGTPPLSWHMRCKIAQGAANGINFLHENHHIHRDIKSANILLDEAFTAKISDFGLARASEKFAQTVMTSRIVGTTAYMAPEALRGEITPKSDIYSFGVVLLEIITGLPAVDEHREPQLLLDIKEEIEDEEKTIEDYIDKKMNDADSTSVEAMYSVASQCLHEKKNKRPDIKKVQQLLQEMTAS
Assay: IRAK4 MSD Degradation in OCI-LY10
Type: cell-based
Details: OCI-LY10 cells, 4 hrs incubation, MSD; read-out: IRAK4 degradation in OCI-LY10 at 4 hrs: DC50
Description: Degradation of IRAK4 in OCI-LY10 was quantitatively measured using Meso Scale Discovery technology. […] Compounds were then added to the assay plates with a final top concentration of 1 to 10 μM in a 1:3 dilution series with total of 8 doses. […] The assay plates were then incubated at room temperature for 1 hour, washed 3 times with 150 μL/well TBST buffer, and 150 μL/well MSD reading buffer (Meso Scale Discovery catalog number R92TC-2) was added. […]
quantity.name: DC50

compound	quantity.name	recorded.result
Cn1c(=O)n(C2CCC(=O)NC2=O)c2cccc(N3CCN(C4CCN(C[C@H]5CC[C@H](n6cc(NC(=O)c7cnn8ccc(N9C[C@H]%10C[C@@H]9CO%10)nc78)c(C(F)F)n6)CC5)CC4)CC3)c21 (some centres unmarked) [I-62]	DC50	< 10 nM
CC1CN(c2ccn3ncc(C(=O)Nc4cn([C@H]5CC[C@H](CN6CCN(CC#Cc7cccc8c7n(C)c(=O)n8C7CCC(=O)NC7=O)CC6)CC5)nc4C(F)F)c3n2)CC(C)O1 (some centres unmarked) [I-289]	DC50	> 200 nM
COc1cc2nn([C@H]3CC[C@H](CN4CCC5(CC4)CCN(c4cccc6c4n(C)c(=O)n6C4CCC(=O)NC4=O)CC5)CC3)cc2cc1NC(=O)c1cncc(F)c1 (some centres unmarked) [I-83]	DC50	> 200 nM
Cn1c(=O)n(C2CCC(=O)NC2=O)c2cccc(N3CCN([C@@H]4CCN(C[C@H]5CC[C@H](n6cc(NC(=O)c7cnn8ccc(N9C[C@H]%10C[C@@H]9CO%10)nc78)c(C(F)F)n6)CC5)CC4(F)F)CC3)c21 (some centres unmarked) [I-365]	DC50	> 200 nM
O=C1CCC(c2cccc3c(C#CCOC4CCN(C[C@H]5CC[C@H](n6cc(NC(=O)c7cnn8ccc(N9C[C@H]%10C[C@@H]9CO%10)nc78)c(C(F)F)n6)CC5)CC4)cccc23)C(=O)N1 (some centres unmarked) [I-248]	DC50	> 200 nM
